A compilation of published IC50 results with Farnesyl pyrophosphate synthase (Homo sapiens).
# TESTED_TARGET: Farnesyl pyrophosphate synthase (Homo sapiens)
# Sequence (P14324 whole entry): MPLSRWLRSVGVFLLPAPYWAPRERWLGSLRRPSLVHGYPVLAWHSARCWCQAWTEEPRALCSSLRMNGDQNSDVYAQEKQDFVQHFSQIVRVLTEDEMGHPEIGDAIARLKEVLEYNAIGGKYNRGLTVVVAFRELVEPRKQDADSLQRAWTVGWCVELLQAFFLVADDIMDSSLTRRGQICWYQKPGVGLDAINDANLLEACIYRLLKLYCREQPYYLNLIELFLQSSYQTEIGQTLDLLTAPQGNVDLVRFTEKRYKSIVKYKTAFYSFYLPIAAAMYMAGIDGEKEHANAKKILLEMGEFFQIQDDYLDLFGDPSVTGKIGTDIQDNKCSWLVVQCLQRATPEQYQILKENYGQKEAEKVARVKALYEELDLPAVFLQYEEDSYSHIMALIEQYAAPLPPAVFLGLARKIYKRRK
Categorized via IC50: band 1 (below 0.6 µM), band 2 (0.6 µM to below 3 µM), band 3 (3 µM or more)

Lab note: which band did O=C(O)C(O)(Cc1cnc2ccccn12)P(=O)(O)O (racemic) land in? band 3

Lab note: which band did O=C(O)[C@@](O)(Cc1cccnc1)P(=O)(O)O land in? band 3

Lab note: which band did C/C(=C/CCn1cc(CC(C)(P(=O)(O)O)P(=O)(O)O)nn1)CC/C=C(\C)CO land in? band 3

Lab note: which band did O=C(NC1CCCCC1)C1=C(O)CC(Cc2ccccc2)NC1=O (configuration not stated) land in? band 3

Lab note: which band did O=C(Nc1ccc(N2CCCCC2)cc1)C1=C(O)CC(Cc2ccccc2)NC1=O (configuration not stated) land in? band 3

Lab note: which band did O=C(O)C(Cn1cnc2cc(F)c(F)cc21)P(=O)(O)O (configuration not stated) land in? band 3

Lab note: which band did O=P(O)(O)C(F)(Cc1cncc(-c2cn[nH]c2)c1)P(=O)(O)O land in? band 2

Lab note: which band did O=C(O)C(F)(Cc1cccnc1)P(=O)(O)O (configuration not stated) land in? band 3

Lab note: which band did CC(C)=CCC/C(C)=C\CCc1cn(CC(O)(P(=O)(O)O)P(=O)(O)O)nn1 land in? band 3

Lab note: which band did O=P(O)(O)C(F)(Cc1cccnc1)P(=O)(O)O land in? band 1

Lab note: which band did O=P(O)(O)C(Nc1nc(-c2ccccc2)nc2sccc12)P(=O)(O)O land in? band 1

Lab note: which band did O=P(O)(O)C(Cn1cnc2ccccc21)P(=O)(O)O land in? band 1

Lab note: which band did O=C(Nc1ccc(C2CCCCC2)cc1)C1=C(O)C(Cc2ccccc2)OC1=O (configuration not stated) land in? band 3

Lab note: which band did O=P(O)(O)C(F)(Cc1cncc(-c2ccc3[nH]ncc3c2)c1)P(=O)(O)O land in? band 2

Lab note: which band did CC(Cn1cnc2ccccc21)(C(=O)O)P(=O)(O)O (configuration not stated) land in? band 3

Lab note: which band did Cc1ccc(C(=O)Nc2cccc(-c3nc(NC(P(=O)(O)O)P(=O)(O)O)c4ccsc4n3)c2)cc1 land in? band 2

Lab note: which band did O=C(Nc1ccc(C2CCCCC2)cc1)C1=C(O)C(Cc2ccccc2)NC1=O (configuration not stated) land in? band 3

Lab note: which band did CC(Cn1cnc2ccccc21)(P(=O)(O)O)P(=O)(O)O land in? band 2

Lab note: which band did O=C(O)C(Cl)(Cc1cccnc1)P(=O)(O)O (configuration not stated) land in? band 3

Lab note: which band did CC(=O)Nc1ccc(-c2ccc(C(=O)O)c(OCc3cccc4ccccc34)c2)cc1 land in? band 1

Lab note: which band did O=C(Nc1ccc(C2CCCCC2)cc1)C1=C(O)C(CCc2ccccc2)NC1=O (configuration not stated) land in? band 3

Lab note: which band did O=C(Nc1cc(Cl)cc(Cl)c1)C1=C(O)C(c2ccccc2)OC1=O (configuration not stated) land in? band 3
